SYSTEM_NAME: T1, alcalase (trade name "Alcalase 2.5L", Novozymes) (UniProt P00780)
T1 sequence (looked up): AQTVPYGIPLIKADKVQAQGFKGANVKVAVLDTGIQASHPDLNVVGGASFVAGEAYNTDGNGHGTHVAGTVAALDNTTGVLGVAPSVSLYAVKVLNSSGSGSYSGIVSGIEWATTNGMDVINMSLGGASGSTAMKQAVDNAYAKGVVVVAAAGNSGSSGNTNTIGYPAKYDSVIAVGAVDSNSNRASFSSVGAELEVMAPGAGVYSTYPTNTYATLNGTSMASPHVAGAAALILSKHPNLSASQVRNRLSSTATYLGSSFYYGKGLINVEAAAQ
ASSAY_DETAILS: cell-based or functional assay
MEASUREMENT_LABEL: Protease activity upon dilution (%) immediately after preparation
Give the value, in units of %, as a plain number.

Data request: Item proteinaceous protease inhibitor of SEQ ID NO:21 (protein) TDTGDHHNQKTEWPELVGKSVEEAKKVILQDKSEAQIVVLPVGTIVTMEYRIDRVRLFVDSLDKIAQVPKVG has what recorded Protease activity upon dilution (%) immediately after preparation?
Data returned: 100

Data request: Item proteinaceous protease inhibitor of SEQ ID NO:32 (protein) MSSVEKKPEGVNTGAGDRHNLKTEWPELVGKSVEEAKKVILQDKSEAQIIVLPVGTIVTMEARIDRVRLFVDKLDNIAQVPRVG has what recorded Protease activity upon dilution (%) immediately after preparation?
Data returned: 73

Data request: Item proteinaceous protease inhibitor of SEQ ID NO:13 (protein) TDTGDHHNQKTEWPELVGKSVEEAKKVILQDKSEAQIVVLPVGTIVTMEYKIDRVRLFVDSLDKIAQVPRVG has what recorded Protease activity upon dilution (%) immediately after preparation?
Data returned: 25
